tested on: MX-1 breast xenograft, intrarenal, nude mice, tumor weight; assay: NCI In Vivo Anticancer Drug Screen. Data for tumor model Human Mammary Carcinoma MX-1 Xenograft (intrarenal inoculation) in NU/NU BALB/C (nude) mice; conditions: endpoint: mean tumor weight change; dose: 150.0 mg/kg/injection; schedule: Q04DX003 (ip); vehicle: saline with Tween-80; higher = larger tumour
Records with an inconclusive call do not appear.
OBSERVATION TYPE: T/C

[[record]]
molecule = "O=S(=O)(O)C1=CC(=N\\Cl)/C=CC/1=N/Cl"
target_of_assay = "MX-1 breast xenograft, intrarenal, nude mice, tumor weight"
recorded_measurement = "89 % of control"

[[record]]
molecule = "CCCCCCCCCCCCCCCCCCOCC(CO)OC (stereo unspecified)"
target_of_assay = "MX-1 breast xenograft, intrarenal, nude mice, tumor weight"
recorded_measurement = "117 % of control"

[[record]]
molecule = "CCCC1CCC(=C2C(=O)CCC2=O)O1 (stereo unspecified)"
target_of_assay = "MX-1 breast xenograft, intrarenal, nude mice, tumor weight"
recorded_measurement = "68 % of control"

[[record]]
molecule = "CCCCNP1(NCCCC)=NP(NCCCC)(NCCCC)=NP(NCCCC)(NCCCC)=NP(NCCCC)(NCCCC)=N1"
target_of_assay = "MX-1 breast xenograft, intrarenal, nude mice, tumor weight"
recorded_measurement = "89 % of control"

[[record]]
molecule = "NS(=O)(=O)OCCCCCCCOS(N)(=O)=O"
target_of_assay = "MX-1 breast xenograft, intrarenal, nude mice, tumor weight"
recorded_measurement = "-40 % of control"

[[record]]
molecule = "Oc1ccc(/C=N/N=C/c2ccc(O)c(O)c2)cc1O"
target_of_assay = "MX-1 breast xenograft, intrarenal, nude mice, tumor weight"
recorded_measurement = "46 % of control"


###

tested on: MX-1 breast xenograft, intrarenal, nude mice, tumor weight; test: NCI In Vivo Anticancer Drug Screen. Data for tumor model Human Mammary Carcinoma MX-1 Xenograft (intrarenal inoculation) in NU/NU BALB/C (nude) mice; conditions: endpoint: mean tumor weight change; dose: 25.0 mg/kg/injection; schedule: Q04DX003 (ip); vehicle: other; higher = larger tumour
Records with an inconclusive call do not appear.
T/C values, listed per item
OBSERVATION TYPE: T/C

[[record]]
molecule = "COc1cccc2c1C(=O)C1=C(C2=O)c2c(O)cc(CO)cc2C(O)C1O (stereo not given)"
target_of_assay = "MX-1 breast xenograft, intrarenal, nude mice, tumor weight"
observation_type = "T/C"
recorded_measurement = "96 % of control"

[[record]]
molecule = "Cc1nc(N)nc(N)c1N1CCN(c2ccc(C(=O)NC(CCC(=O)O)C(=O)O)cc2)CC1 (stereo not given)"
target_of_assay = "MX-1 breast xenograft, intrarenal, nude mice, tumor weight"
observation_type = "T/C"
recorded_measurement = "112 % of control"

[[record]]
molecule = "O=C(Nc1cccc(O)c1)C(Cl)=C(Cl)Cl"
target_of_assay = "MX-1 breast xenograft, intrarenal, nude mice, tumor weight"
observation_type = "T/C"
recorded_measurement = "45 % of control"

[[record]]
molecule = "NC(Cc1ccccc1)C(=O)OCN1C(=O)C2C3C=CC(C2C1=O)C1C2C(=O)N(COC(=O)C(N)Cc4ccccc4)C(=O)C2C31 (stereo not given)"
target_of_assay = "MX-1 breast xenograft, intrarenal, nude mice, tumor weight"
observation_type = "T/C"
recorded_measurement = "94 % of control"

[[record]]
molecule = "N#Cc1ccc(NN=O)nc1"
target_of_assay = "MX-1 breast xenograft, intrarenal, nude mice, tumor weight"
observation_type = "T/C"
recorded_measurement = "20 % of control"

